Tested on: HCC-2998 colon
ASSAY OVERVIEW: NCI tumour cell line growth inhibition, 48 h
Assignment: determine reported GI50 for the given compounds.

Please review the following examples before continuing.
1. Cc1cc(N2CCN(C)CC2)nc(NCc2cc(Nc3ccnc4cc(Cl)ccc34)ccc2F)n1
1.79 µM
2. O=C(/C=C/c1ccccc1)c1c[nH]c2ccccc2c1=O
2.85 µM
3. CC(=O)Nc1ccc(-c2c3nc(c(-c4cc5ccccc5[n+](C)c4)c4ccc([nH]4)c(-c4ccc(NC(C)=O)cc4)c4nc(c(-c5cc6ccccc6[n+](C)c5)c5ccc2[nH]5)C=C4)C=C3)cc1
> 50 µM
4. COc1ccc2c(c1)[C@]1(C[C@H]1c1ccc3c(/C=C/c4ccc(CN5C[C@@H](C)O[C@@H](C)C5)cc4)n[nH]c3c1)C(=O)N2
4.18 µM
5. COc1ccc(Cl)cc1Nc1nc(C(F)(F)F)ccc1C(=O)N/N=C/c1ccc([N+](=O)[O-])cc1
1.29 µM

Please supply GI50 for each of the following items, keeping them in order.
1. Cc1onc(-c2c(F)cccc2Cl)c1-c1ncc(-c2ccc(Cl)cc2)o1
2. O=C(CCCn1c(=O)c2sc3ccccc3c2n2nnc(-c3ccccc3)c12)NCCc1cnc[nH]1
3. COc1ccc(C[n+]2c3ccccc3n3c4ccc(N)cc4ccc32)c(OC)c1OC
4. COc1cc(N2CCN(C(C)C)CC2)ccc1Nc1nc(Nc2cccc3ncccc23)c2cc[nH]c2n1
5. CCCCN(CCCC)c1ccc(C(=N)c2ccc(N(C)C)cc2)cc1

Reply:
1: 5.95 µM; 2: 1.77 µM; 3: 4 µM; 4: 3.17 µM; 5: 0.429 µM

---

Test system: HOP-18 NSCLC
ASSAY OVERVIEW: NCI tumour cell line growth inhibition, 48 h
VALUE KIND: TGI

Worked examples, 3 molecules total:
1. N=CCCN(CCC=N)c1ccc(/C=C2\CN(NC(=O)c3ccc(Cl)cc3)C(c3ccccc3)=N2)cc1
> 100 µM
2. COc1cc(=O)oc(/C=C/C=O)c1C
37.5 µM
3. CN(C)c1ccc2c(c1)CN1C(=O)c3ccccc3C1=N2
> 100 µM

Provide each entry's TGI from the list below.
1. C/C=C(\C)c1cc(=O)c2c(C)cc3c(c2o1)C(=O)c1c(O)c(C2CC(C)(N(C)C)C(O)C(C)O2)cc(C2CC(N(C)C)C(O)C(C)O2)c1C3=O (stereo not given)
2. O=C(O)C1CCc2nnc(-c3ccccc3)n21 (stereo not given)

Reply:
["> 100 µM", "> 100 µM"]

---

Tested on: OVCAR-5 ovarian
ASSAY OVERVIEW: NCI tumour cell line growth inhibition, 48 h
Exercise: state measured TGI for each of the compounds provided.

For every item below, please supply its TGI.
1. COc1cccc(/C(CC(O)(C(F)(F)F)C(F)(F)F)=N\N(C)C)c1
2. Cc1ccc(NC(=O)CC/C(CC(=O)C(C)(C)C)=N/NC(=O)C(N)=O)cc1C

Reply:
1. > 100 µM
2. > 100 µM

Hi team, please reply with TGI for each item in this list.
1. COc1cc2cc[n+](C)c(Cc3ccccc3)c2cc1OC
2. NCC[Se][Se]CCN
3. CCOc1cc(-c2nc3ccccn3c2/N=C/c2cc([N+](=O)[O-])cc([N+](=O)[O-])c2O)ccc1O
4. COc1c(C2=NC(C(C)C)CO2)ccc2ccccc12 (stereo unspecified)
5. CSc1ccccc1P(c1ccccc1SC)c1ccccc1SC
6. CCC(CS(=O)(=O)O)[N+](=O)[O-] (stereo unspecified)
7. CN1CCC(CNC(=O)CCCCCCCCC(=O)NCC2(c3ccccc3)CCN(C)CC2)(c2ccccc2)CC1

Reply:
1. > 100 µM
2. 17.6 µM
3. > 100 µM
4. > 100 µM
5. > 100 µM
6. > 100 µM
7. > 100 µM

Parameter requested: TGI. Apply to each item below.
1. [N-]=[N+]=Nc1ccc(NCCCCCC(=O)ON2C(=O)CCC2=O)c([N+](=O)[O-])c1
2. O=C(Cn1c(=O)c(-c2ccccc2)nc2ccccc21)c1ccc(Cl)cc1
3. O=C1NCN(c2ccccc2)C12CCN(CCc1ccc3[nH]c(=S)[nH]c3c1)CC2
4. CC1SC(c2ccccc2)N(Nc2c3ccccc3nc3ccccc23)C1=O (stereo unspecified)
5. CC(C)(C)[Si](C)(C)OCC1CCC(n2cnc3c(=O)[nH]cnc32)O1 (stereo unspecified)
6. COc1ccc(-c2cc(-c3ccccc3)n(C3OCC(OC(C)=O)C(OC(C)=O)C3OC(C)=O)c(=S)c2C#N)cc1 (stereo unspecified)

Reply:
1. > 100 µM
2. > 100 µM
3. > 100 µM
4. > 100 µM
5. > 100 µM
6. > 100 µM

Below are some compounds; for each one, tell me its TGI.
1. COC(=O)C1=C(OC(=O)/C(=C/c2ccc(Cl)cc2Cl)c2ccc(Cl)cc2Cl)C(C(=O)OC)[C@@]2(O)[C@@H](C(=O)OC)[C@H](C)C[C@@H]1[C@@H]2C(=O)OC (stereo partly specified)
2. Cc1cc(=O)n(-c2ccccc2)c(=O)o1
3. CN(C)CCNc1ccc2ncnc3c2c1C(=O)c1ccccc1-3
4. CC1=CCC2(C#N)CCC1C2O (stereo unspecified)

Reply:
1: > 100 µM; 2: > 100 µM; 3: 3.42 µM; 4: > 100 µM

Hello, I would appreciate it if you could give TGI for each entry below.
1. CCN(CC)c1ccc2c(c1)OC(=O)C(c1nnc(-c3ccc([N+](=O)[O-])cc3)o1)C2 (stereo unspecified)
2. O=C(/C=C/c1ccccc1)c1c[nH]c2ccccc2c1=O

Reply:
["> 100 µM", "17 µM"]

---

Tested on: PC-3 prostate
ASSAY OVERVIEW: NCI tumour cell line growth inhibition, 48 h
VALUE KIND: TGI

Would you please look over these solved cases?
1) CCN(CC)C(=O)CC1=C(C)/C(=C/c2[nH]c(-c3ccc[nH]3)cc2OC)N=C1C
33 µM
2) CCC(CC)C(=O)OC[n+]1ccc(-c2c(COC(=O)NC(C)C)c(COC(=O)NC(C)C)c3n2CCC3)cc1
> 100 µM
3) Nc1nc(Cl)c(N)c(NCC2(CO)CC(Cc3ccccc3)C2)n1 (stereo not given)
> 100 µM
4) CN(CCC#N)c1ccc(/C=C(\C#N)c2cccc(C(F)(F)F)c2)cc1
> 100 µM
5) CC(C)(C)[Si](C)(C)OCC1CCC(n2cnc3c(=O)[nH]cnc32)O1 (stereo not given)
> 100 µM

# batch: return TGI for each of the 7 compounds below
1. Cc1onc(-c2c(F)cccc2Cl)c1-c1ncc(-c2ccc(Cl)cc2)o1
2. CC(N=C(N)N)C(=O)O (stereo not given)
3. Cc1cc(=O)oc2c(CN3CCCCC3)c(O)ccc12
4. CC1CC(C)[C@H](O)C([C@H](O)CC2CC(=O)N(C)C(=O)C2)C1 (stereo not given in full)
5. COc1ccc(-c2cc(-c3ccc(Cl)cc3)n(C3OC(CO)C(O)C(O)C3O)c(=S)c2C#N)cc1 (stereo not given)
6. Cn1cc(C2=C(c3c4n(c5ccccc35)CCCC4)C(=O)NC2=O)c2ccccc21
7. C/C=C(\C)c1cc(=O)c2c(C)cc3c(c2o1)C(=O)c1c(O)c(C2CC(C)(N(C)C)C(O)C(C)O2)cc(C2CC(N(C)C)C(O)C(C)O2)c1C3=O (stereo not given)

Reply:
["> 100 µM", "> 100 µM", "> 100 µM", "> 100 µM", "> 100 µM", "> 25 µM", "1.42 µM"]

# batch: return TGI for each of the 7 compounds below
1. C[n+]1noc(/N=N\[O-])c1-c1cc(-c2c(/N=N\[O-])on[n+]2C)cc(-c2c(/N=N/[O-])on[n+]2C)c1
2. Cc1nc2ccccc2c(=O)n1-c1n[nH]c2ccccc12
3. CCCCN(CCCC)c1ccc(C(=N)c2ccc(N(C)C)cc2)cc1
4. COc1cc(-c2nn(-c3ccc(NC(=O)Nc4ccc(Cl)c(Cl)c4)cc3)cc2-c2ccncc2)ccc1Cl
5. FC(F)(F)c1nc2ccc(SSc3ccc4nc(C(F)(F)F)[nH]c4c3)cc2[nH]1
6. C=CCN1C(=O)CC1N(CC=C)S(=O)(=O)c1ccc(C)cc1 (stereo not given)
7. Oc1ccc(Cl)cc1-c1[nH]c(=S)nc(-c2ccccc2)c1Cl

Reply:
["> 100 µM", "> 100 µM", "1.67 µM", "> 100 µM", "> 100 µM", "> 100 µM", "> 100 µM"]

The following compounds each have a reported value; give each one's TGI.
1. CN(Cc1cnc(N)nc1N)c1ccc(C(=O)O)cc1
2. CO[C@H]1O[C@@H]2CO[C@@H](c3ccccc3)O[C@H]2[C@@H]2CC=CCC[C@]12O
3. Cc1cc(C)nc(NS(=O)(=O)c2ccc(NN=c3c4ccccc4n(C)c4ccccc34)cc2)n1
4. C/C(=N/NC(=O)c1ccncc1)c1ccc(NC(=O)C(=O)Nn2c(=S)[nH]c3ccccc3c2=O)cc1
5. C=C1C(=O)O[C@H]2[C@H]1CC/C(Cn1cc(CNCCc3c[nH]c4ccc(Cl)cc34)nn1)=C\CC[C@@]1(C)O[C@@H]21
6. CN1CCC(CNC(=O)CCCCCCCCC(=O)NCC2(c3ccccc3)CCN(C)CC2)(c2ccccc2)CC1
7. COc1ccc(-c2cc(-c3ccccc3)n(C3OCC(OC(C)=O)C(OC(C)=O)C3OC(C)=O)c(=S)c2C#N)cc1 (stereo not given)

Reply:
1. > 100 µM
2. > 100 µM
3. > 100 µM
4. > 100 µM
5. 27 µM
6. > 100 µM
7. > 100 µM

Hello, I would appreciate it if you could give TGI for each entry below.
1. O=C(/C=C/c1ccccc1)c1c[nH]c2ccccc2c1=O
2. Cc1oc2nc[nH]c(=O)c2c1C(=O)/C=C/c1ccc(Cl)cc1
3. C=C(C)[C@@H]1C[C@H]2O[C@](O)(C(=C)CC(=O)/C=C(/C)C[C@@H]3OC(=O)[C@]24O[C@@H]34)[C@H]1O
4. CC(=O)NC1=C(C)C(=O)c2c(nc3n2CCC3OC(=O)c2ccccc2)C1=N (stereo not given)
5. N#Cc1nc(CSCc2ccccc2)oc1N

Reply:
1. 33.1 µM
2. 8.76 µM
3. > 100 µM
4. 6.85 µM
5. > 100 µM

# batch: return TGI for each of the 3 compounds below
1. Cc1ccc(N/C(Sc2ccccc2)=C(/C(Cl)=C(Cl)Cl)[N+](=O)[O-])c(C)c1
2. CC(CN(C)C)C(=O)c1ccccc1C(=O)O (stereo not given)
3. COC(=O)c1ccccc1/C=C1/Cc2cccc(C)c2C1=O

Reply:
36.1 µM
94.5 µM
> 100 µM

Look up TGI for the entries below, preserving their order.
1. N#Cc1nc(C2CC2)oc1N
2. C=C(C)C#CC(O)(C(=O)OC1CCN(C)CC1)C(C)C (stereo not given)
3. COc1cccc(/C(CC(O)(C(F)(F)F)C(F)(F)F)=N\N(C)C)c1
4. O=C(CBr)N1CCC2(CC1)SSC1(CCN(C(=O)CBr)CC1)S2
5. COC(=O)C1=C(OC(=O)/C(=C/c2ccc(Cl)cc2Cl)c2ccc(Cl)cc2Cl)C(C(=O)OC)[C@@]2(O)[C@@H](C(=O)OC)[C@H](C)C[C@@H]1[C@@H]2C(=O)OC (stereo not given in full)
6. COC(=O)c1ccc(Oc2nc3ccccc3nc2-c2cccs2)cc1

Reply:
> 100 µM
> 100 µM
> 100 µM
3.38 µM
> 100 µM
> 100 µM

Cited source: PubChem BioAssay (NCI)
